Values compiled from the supplement of paper PMC5998384.

test system: HeLa Kyoto; assay: melting temperature (median over replicates), in situ; higher = more thermally stable; settings: cell cycle stage: mitosis;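 also: HeLa Kyoto cells synchronized by double thymidine or nocodazole block, proteins quantified by TMT10plex mass spectrometry, three independent biological replicates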
READOUT_TYPE: melting temperature
Please answer using the number first and the unit second.

SUBSTANCE	SYSTEM_NAME	melting temperature
ARHGEF12	HeLa Kyoto	50.4 °C

Query: # lookup: melting temperature of MSDDDSRASTSSSSSSSSNQQTEKETNTPKKKESKVSMSKNSKLLSTSAKRIQKELADITLDPPPNCSAGPKGDNIYEWRSTILGPPGSVYEGGVFFLDITFTPEYPFKPPKVTFRTRIYHCNINSQGVICLDILKDNWSPALTISKVLLSICSLLTDCNPADPLVGSIATQYMTNRAEHDRMARQWTKRYAT [UBE2E1]
Reply: 49.5 °C

Query: # lookup: melting temperature of MTDGDYDYLIKLLALGDSGVGKTTFLYRYTDNKFNPKFITTVGIDFREKRVVYNAQGPNGSSGKAFKVHLQLWDTAGQERFRSLTTAFFRDAMGFLLMFDLTSQQSFLNVRNWMSQLQANAYCENPDIVLIGNKADLPDQREVNERQARELADKYGIPYFETSAATGQNVEKAVETLLDLIMKRMEQCVEKTQIPDTVNGGNSGNLDGEKPPEKKCIC [RAB27B]
Reply: 59.9 °C

Query: # lookup: melting temperature of `HDGFRP2`
Reply: 53.9 °C
